# Measurement Protocol: Partition coefficient between octanol-saturated sorenson's pH 7.4 phosphate buffer and buffer-saturated octanol.
# Format: physicochemical
# Test Parameters: octanol/Sorensen's phosphate buffer
Metric Name: logD

Input line: Give the reported value of logD for this record: CCN(C)/N=N/c1ccc(C(=O)O)cc1
Output line: 0.04

----------
// values below are reported ILS at 200 mg/kg
# Test system: Mus musculus
# Measurement Protocol: Percent increase in life span of TLX/5 lymphoma bearing mice at dose of 200 mg/kg
# Type: functional
Expressed in %, but write only the number.

CN(C)/N=N/c1ccc(C(=O)O)cc1; 0
CCCN(C)/N=N/c1ccc(C(=O)O)cc1; 57
CCCCCN(C)/N=N/c1ccc(C(=O)O)cc1; -61
CCCCCCN(C)/N=N/c1ccc(C(=O)O)cc1; -8

Input line: Name the recorded ILS at 200 mg/kg of the molecule listed here: CN(C)/N=N/c1[nH]cnc1C(N)=O
Output line: 61

Input line: Please give measured ILS at 200 mg/kg of the following entry: CCCCCCCN(C)/N=N/c1ccc(C(=O)O)cc1
Output line: -19

Input line: Dear colleague, please send me the reported ILS at 200 mg/kg for CC(C)N(C)/N=N/c1ccc(C(=O)O)cc1 when you can.
Output line: 45

Input line: Identify the reported ILS at 200 mg/kg for the following entry. CN(Cc1ccccc1)/N=N/c1ccc(C(=O)O)cc1
Output line: -59

Input line: Identify measured ILS at 200 mg/kg corresponding to C=CCN(C)/N=N/c1ccc(C(=O)O)cc1
Output line: 56

Input line: # return recorded ILS at 200 mg/kg for input CCC(C)CN(C)/N=N/c1ccc(C(=O)O)cc1 (configuration not stated)
Output line: 60

Input line: Answer with the recorded ILS at 200 mg/kg of CCCCN(C)/N=N/c1ccc(C(=O)O)cc1 only.
Output line: 20

Input line: Hello, please tell me recorded ILS at 200 mg/kg for this one: C#CCN(C)/N=N/c1ccc(C(=O)O)cc1
Output line: 40

----------
# Tested on: Mus musculus
# Measurement Protocol: Percent increase in life span of TLX/5 lymphoma bearing mice at dose of 50 mg/kg
# Assay type: functional
Simple rule here: ILS at 50 mg/kg less than 80% is true (1), otherwise false (0).

CN(C)/N=N/c1[nH]cnc1C(N)=O [DACARBAZINE]; true (1)
CCCCCCCN(C)/N=N/c1ccc(C(=O)O)cc1; true (1)
CN(C)/N=N/c1ccc(C(=O)O)cc1; false (0)

Could you now consider this next compound?
Input line: Please indicate whether the reported ILS at 50 mg/kg of CCCCCN(C)/N=N/c1ccc(C(=O)O)cc1 is strictly below 80%.
Output line: true (1)

----------
# Tested on: Mus musculus
# Measurement Protocol: Percent increase in life span of TLX/5 lymphoma bearing mice at dose of 25 mg/kg
# Format: functional
Measured ILS at 25 mg/kg of individual entries
Give the number; % is assumed, so skip it.

CCCCN(C)/N=N/c1ccc(C(=O)O)cc1; 82

Input line: Give the reported value of ILS at 25 mg/kg for this record: C#CCN(C)/N=N/c1ccc(C(=O)O)cc1
Output line: 36

Input line: Answer with the recorded ILS at 25 mg/kg for the compound listed here: CC(C)N(C)/N=N/c1ccc(C(=O)O)cc1
Output line: 90

Input line: Give me measured ILS at 25 mg/kg, please, for this compound: CN(Cc1ccccc1)/N=N/c1ccc(C(=O)O)cc1
Output line: 6

Input line: Provide ILS at 25 mg/kg value for the following compound: CCCCCN(C)/N=N/c1ccc(C(=O)O)cc1
Output line: 108

Input line: Consider the compound C=CCN(C)/N=N/c1ccc(C(=O)O)cc1 . State its measured ILS at 25 mg/kg.
Output line: 11

Measured values drawn from ChEMBL document CHEMBL1121637 for this set.
